Entries and their viscosity values follow.
# test conditions: 338.15 K; 101.33 kPa; Liquid; Concentric cylinders viscometry
Just the number please, in mPa·s, no unit attached.

- compound: "CCCCCCCCCCCCCC[P+](CCCCCC)(CCCCCC)CCCCCC.N#C[N-]C#N [tetradecyl(trihexyl)phosphonium dicyanamide]"
  value unit: "mPa·s"
  viscosity: 65.56

viscosity reported for this compound CCCCCCCCCCCCCC[P+](CCCCCC)(CCCCCC)CCCCCC.[Cl-] [trihexyl(tetradecyl)phosphonium chloride] : 237.78

Value of viscosity reported for the compound CCCCCCCCCC(=O)[O-].CCCCCCCCCCCCCC[P+](CCCCCC)(CCCCCC)CCCCCC [trihexyltetradecylphosphonium decanoate] is 70.93

Reported viscosity for "CC(CC(C)(C)C)CP(=O)([O-])CC(C)CC(C)(C)C.CCCCCCCCCCCCCC[P+](CCCCCC)(CCCCCC)CCCCCC" was 188.43

// viscosity value for "CCCCCCCCCCCCCC[P+](CCCCCC)(CCCCCC)CCCCCC.O=S(=O)([N-]S(=O)(=O)C(F)(F)F)C(F)(F)F" : 52.49

Summary for this compound, CCCCCCCCCCCCCC[P+](CCCCCC)(CCCCCC)CCCCCC.[Br-] [tetradecyltrihexylphosphonium bromide] : viscosity is 255.03

viscosity reported for this compound CCCCCCCCCCCCCC[P+](CCCCCC)(CCCCCC)CCCCCC.CS(=O)(=O)[O-] [trihexyltetradecylphosphonium methanesulfonate] : 129.63

###

Each item that follows carries a reported viscosity.
# test conditions: 318.15 K; 101.33 kPa; Liquid; Concentric cylinders viscometry
Report only the number, with the unit mPa·s understood.

- compound: "CCCCCCCCCCCCCC[P+](CCCCCC)(CCCCCC)CCCCCC.[Cl-] [trihexyl(tetradecyl)phosphonium chloride]"
  viscosity / mPa·s: 705.75
- compound: "CC(CC(C)(C)C)CP(=O)([O-])CC(C)CC(C)(C)C.CCCCCCCCCCCCCC[P+](CCCCCC)(CCCCCC)CCCCCC"
  viscosity / mPa·s: 466.24
- compound: "CCCCCCCCCC(=O)[O-].CCCCCCCCCCCCCC[P+](CCCCCC)(CCCCCC)CCCCCC [trihexyltetradecylphosphonium decanoate]"
  viscosity / mPa·s: 163

Note: attention shifts to another entry.
viscosity for CCCCCCCCCCCCCC[P+](CCCCCC)(CCCCCC)CCCCCC.CS(=O)(=O)[O-] [trihexyltetradecylphosphonium methanesulfonate] is 369.02

###

# test conditions: 348.15 K; 101.33 kPa; Liquid; Concentric cylinders viscometry
± gives the expanded uncertainty stated by the source.
The entries below are paired with their reported viscosity.
Write your answer as a measured quantity: the number, then the unit.

// solved cases for viscosity follow
- compound: "CCCCCCCCCCCCCC[P+](CCCCCC)(CCCCCC)CCCCCC.N#C[N-]C#N [tetradecyl(trihexyl)phosphonium dicyanamide]"
  observed property: "viscosity"
  result: "45.6 ± 0.42 mPa·s"
- compound: "CCCCCCCCCC(=O)[O-].CCCCCCCCCCCCCC[P+](CCCCCC)(CCCCCC)CCCCCC [trihexyltetradecylphosphonium decanoate]"
  observed property: "viscosity"
  result: "49.99 ± 0.46 mPa·s"
- compound: "CCCCCCCCCCCCCC[P+](CCCCCC)(CCCCCC)CCCCCC.[Cl-] [trihexyl(tetradecyl)phosphonium chloride]"
  observed property: "viscosity"
  result: "149.21 ± 2.4 mPa·s"

# context switch: different compound, same viscosity
viscosity reading for CCCCCCCCCCCCCC[P+](CCCCCC)(CCCCCC)CCCCCC.[Br-] [tetradecyltrihexylphosphonium bromide] : 159.44 ± 2.7 mPa·s
